Recorded values, source PubChem BioAssay AID1963980.

- System: 475296-252-R-J1-PDC spheroid viability;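 further: spheroids exposed to agents for seven days before readout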
- RUN_DESCRIPTION: Anticancer human tumor 475296-252-R-J1-PDC patient-derived rectal carcinoma cell line growth inhibition [PI3K]
- CONDITION_NOTES: second compound 1 µM; first compound 0.01 µM; stronger effect = lower value; spheroids with HUVEC and MSC
Give measured viability, T/C for each item. Keep answers brief.
API: value field is a number in %; no unit string.

Task: Provide the documented viability, T/C with 475296-252-R-J1-PDC spheroid viability as the system for CCN1CCN(Cc2ccc(Nc3ncc(F)c(-c4cc(F)c5nc(C)n(C(C)C)c5c4)n3)nc2)CC1 + CC(Nc1ccc2c(c1)OCCn1cc(N3C(=O)OCC3C(F)F)nc1-2)C(N)=O
Result: 75.5

Task: Can you check CC(=O)c1c(C)c2cnc(Nc3ccc(N4CCNCC4)cn3)nc2n(C2CCCC2)c1=O + COc1c(OCCCN2CCOCC2)ccc2c3n(c(=NC(=O)c4cnc(N)nc4)nc12)CCN3 next?
Result: 61.5

Task: Param item: CC(=O)c1c(C)c2cnc(Nc3ccc(N4CCNCC4)cn3)nc2n(C2CCCC2)c1=O + Cc1nc(NC(=O)N2CCCC2C(N)=O)sc1-c1ccnc(C(C)(C)C(F)(F)F)c1
Result: 112

Task: Follow-up item: CCN1CCN(Cc2ccc(Nc3ncc(F)c(-c4cc(F)c5nc(C)n(C(C)C)c5c4)n3)nc2)CC1 + Cc1nc(NC(=O)N2CCCC2C(N)=O)sc1-c1ccnc(C(C)(C)C(F)(F)F)c1
Result: 90.5
